# PROTOCOL_DESCRIPTION: NCI Yeast Anticancer Drug Screen. Data for the rad50EPP+ strain (AID 151);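 also: 0% = growth of vehicle-treated control cultures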
# CONDITION_SET: S. cerevisiae rad50 mutant strain, at 11.0 µM
This is part of a sample that, as a whole, favours compounds with a hit. Of some 79,000 tested, about 15% had one in any assay. Active and inactive are the calls of the source. Rule as the data show it: active = growth inhibition above about 70%; inactive = the rest.
Would you mind answering with one of these outcomes? 1 (yes) (active), 0 (no) (inactive)

Recorded results for 4 compounds are shown here.
- COMPOUND: "Cc1ccc(S(=O)(=O)Oc2cc(Cl)c(Cl)cc2Cl)cc1"
  CATEGORY_LABEL: "0 (no)"
- COMPOUND: "Cc1cc(CO)c(O)c(CNCc2cc(C)cc(CO)c2O)c1"
  CATEGORY_LABEL: "0 (no)"
- COMPOUND: "Cc1ccc(C2C(Cl)C(=O)N2n2cnc3ccccc3c2=O)cc1 (configuration not stated)"
  CATEGORY_LABEL: "0 (no)"
- COMPOUND: "O=C(NCCCCCCCN1CCCCCCC1)C(C1CCCCC1)C1CCCCC1"
  CATEGORY_LABEL: "0 (no)"

Query :: Hi, sorry to bother you, what did the test record for `CSC1=NNC(SC)=NN1` ?
Result :: 0 (no)

Query :: What call does the record list for COc1cc(C2c3cc4c(cc3OC(Nc3ccccc3)C2C)OCO4)cc(OC)c1O (configuration not stated) ?
Result :: 0 (no)

Query :: So what was the verdict on N#Cc1ccc(C2NN=CC23C(=O)c2ccccc2OC3c2ccccc2)cc1 (configuration not stated) in this test?
Result :: 0 (no)

Query :: Returns: the outcome recorded for `CC(C)(Br)C(=O)/C=C/c1ccc(Cl)c(Cl)c1` in this assay.
Result :: 0 (no)

Query :: Per the assay record, what outcome was assigned to `CC(=O)SCCC[Si](C)(C)CCCSC(C)=O` ?
Result :: 0 (no)

---

# PROTOCOL_DESCRIPTION: NCI Yeast Anticancer Drug Screen. Data for the rad50EPP+ strain (AID 151);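 also: 0% = growth of vehicle-treated control cultures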
# CONDITION_SET: S. cerevisiae rad50 mutant strain, at 33.0 µM, stronger effect = higher value
Compounds without any hit were thinned out: in the full panel of roughly 79,000, 15% have a hit.
# label = rule met if growth inhibition >= 60% else rule not met

- COMPOUND: "O=C1C=CC(=O)c2c(O)c(Nc3ccc(OC(F)(F)F)cc3)c(Cl)c(O)c21"
  CATEGORY_LABEL: "rule met"
- COMPOUND: "O=C(O)c1ccccc1NC(=S)c1ccccc1"
  CATEGORY_LABEL: "rule not met"
- COMPOUND: "Nc1ccccc1CC(O)C(=O)O (stereo unspecified)"
  CATEGORY_LABEL: "rule not met"
- COMPOUND: "CN(C)C[C@H]1CC[C@@H](CN(C)C)C1=O"
  CATEGORY_LABEL: "rule not met"
- COMPOUND: "CN(C)CCOc1ccc2c(c1)C/C(=C/c1ncc([N+](=O)[O-])n1C)C2=O"
  CATEGORY_LABEL: "rule not met"

Query :: Reported growth inhibition reaches at least 60% for `CCOC(=O)c1cc([N+](=O)[O-])cc([N+](=O)[O-])c1Sc1ncnc2nc[nH]c12` ?
Result :: rule met

Query :: # bool: growth inhibition of `O=C(/C=C/c1cccc(Br)c1)c1cccs1` >= 60%
Result :: rule met

---

# PROTOCOL_DESCRIPTION: NCI Yeast Anticancer Drug Screen. Data for the mec2-1 strain (AID 157)
# CONDITION_SET: S. cerevisiae mec2-1 strain, at 1.2 µM, stronger effect = higher value
The panel holds about 79,000 compounds, 15% with a hit somewhere; the sample as a whole holds those more often.
Below, each entry is listed alongside its reported growth inhibition.
// return numeric value only (unit: %, not printed)

- COMPOUND: "O=C(NCCCCNCCCNC(=O)c1cc(-c2ccccc2)nc2ccccc12)c1cc(-c2ccccc2)nc2ccccc12"
  READING: -1
- COMPOUND: "CCCCCCCCC/C=C/C=C/C(=O)NCC(=O)NC1C(O)C(O)C(Nc2ncnc3nc[nH]c23)OC1C(O)CO (stereo not drawn)"
  READING: -61
- COMPOUND: "O=C1C(=O)c2ccccc2C=C1[N+](=O)[O-]"
  READING: 2
- COMPOUND: "COc1ccccc1/C=C1\\Sc2scc(-c3cccc([N+](=O)[O-])c3)[n+]2C1=O"
  READING: 67
- COMPOUND: "O=C(Nc1ccccc1)C(=O)C(C(=O)c1ccccc1)C(c1ccccc1)c1ccccc1 (stereo not drawn)"
  READING: 8

Query :: Return reported growth inhibition. Input compound: `CN=C(N)N/N=C/c1ccc2c(c1)Cc1ccccc1-2`
Result :: 9

Query :: Given the compound `Cn1ccnc1Oc1ccc(Cl)cc1` , write its reported growth inhibition.
Result :: -2

Query :: Hello, please tell me recorded growth inhibition for this one: O=C1NC(=O)C2C3C=CC(C3)C12 (stereo not drawn)
Result :: -1

Query :: Let me know recorded growth inhibition for COc1cc2c(c(OC)c1OC)-c1c(cc3c(c1OC)OCO3)CC(C)C(C)(O)C2OC(=O)c1ccccc1 (stereo not drawn) , thanks.
Result :: -2

Query :: Give recorded growth inhibition. `Cn1c(=O)c2ccccc2c2ccccc21`
Result :: 0

---

# PROTOCOL_DESCRIPTION: NCI Yeast Anticancer Drug Screen. Data for the rad50EPP+ strain (AID 151);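 also: 0% = growth of vehicle-treated control cultures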
# CONDITION_SET: S. cerevisiae rad50 mutant strain, at 1.2 µM, stronger effect = higher value
Compounds without any hit were thinned out: in the full panel of roughly 79,000, 15% have a hit. Activity calls are given as the source filed them. No stated cut-off is given here; in the data, active means growth inhibition above about 70%; inactive means the rest.
Measured growth inhibition by item

These recorded examples may help you get a feel for the data.
- MOLECULE: "COC(=O)C1=C(C)NC(C)=C(C(=O)OCCCN2CCC(c3ccccc3)(c3ccccc3)CC2)C1c1cccc([N+](=O)[O-])c1 (stereo not given)"
  READING: "66% (inactive)"
- MOLECULE: "COc1cc(C2c3cc4c(cc3OC(Nc3ccccc3)C2C)OCO4)cc(OC)c1O (stereo not given)"
  READING: "-1% (inactive)"
- MOLECULE: "CN(C)c1nc2sc3c(c2c(=O)o1)CCCC3"
  READING: "13% (inactive)"

Query :: Name the recorded growth inhibition of the molecule listed here: `CC(=O)Nc1ccc(/C=C(\C#N)c2ccc(C)cc2)cc1`
Result :: -11% (inactive)

Query :: Using known records, supply growth inhibition for `COc1ccc(/C=C/C(=O)C(C)(C)Br)cc1`
Result :: 79% (active)

---

Each entry below lists one item and its recorded growth inhibition value.
# PROTOCOL_DESCRIPTION: NCI Yeast Anticancer Drug Screen. Data for the mlh1 strain (AID 171);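 also: 0% = growth of vehicle-treated control cultures of the same strain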
# CONDITION_SET: S. cerevisiae mlh1 strain growth inhibition; at 1.2 µM; stronger effect = higher value
About 79,000 compounds went through this panel and 15% of them were active in at least one assay; those are over-represented in the sample as a whole.
Write the value in % as a bare number.

Sample records with growth inhibition:
- COMPOUND: "O=C(CCCN1CCC(O)(c2ccc(Cl)cc2)CC1)c1ccc(F)cc1"
  READING_UNIT: "%"
  READING: 11
- COMPOUND: "Cc1ccc(-c2ccc(Nc3c4ccccc4nc4ccccc34)cc2)cn1"
  READING_UNIT: "%"
  READING: 5

Query :: Indicate its recorded growth inhibition; the compound in question is `COc1cc2c(cc1[N+](=O)[O-])C(=O)C(Br)(Br)CCC2`
Result :: 50

Query :: Quickly give me recorded growth inhibition for `Cc1ccc(NN(NC(=O)OC(C)C)C(=O)OC(C)C)cc1`
Result :: 0

Query :: For the compound `O=[N+]([O-])c1cc2no[n+]([O-])c2cc1N1CCCCC1` , give its reported growth inhibition.
Result :: 24

---

# PROTOCOL_DESCRIPTION: NCI Yeast Anticancer Drug Screen. Data for the rad14 strain (AID 159);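 also: 0% = growth of vehicle-treated control cultures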
# CONDITION_SET: S. cerevisiae rad14 strain growth inhibition; at 100.0 µM; stronger effect = higher value
The panel holds about 79,000 compounds, 15% with a hit somewhere; the sample as a whole holds those more often.
Each entry falls into one class according to its growth inhibition; the ranges are low-valued: < 40%; mid-valued: ≥ 40% and < 90%; high-valued: ≥ 90%

- COMPOUND: "CCCCc1cc(O)ccc1O"
  CATEGORY_LABEL: "low-valued"
- COMPOUND: "Cn1c(N)nc(-c2ccc(Cl)cc2)c1SSc1c(-c2ccc(Cl)cc2)nc(N)n1C"
  CATEGORY_LABEL: "high-valued"

Query :: Just checking, what class would you give `Cc1nn(-c2cc(Cl)ccc2[N+](=O)[O-])c(C)c1Cl` here?
Result :: low-valued

Query :: Band of C=CC(C)(O)CCC1C(=C)C(O)CC2C(C)(C)CCCC12C (stereo unspecified) ?
Result :: mid-valued

Query :: For this compound, which bin applies? OCC1OC(OCC(O)C(O)C(O)C(/C=N/Nc2ccccc2)=N/Nc2ccccc2)C(O)C(O)C1O (stereo unspecified)
Result :: low-valued

Query :: Lab note: sort `Oc1c(Br)cc(Br)cc1C1CCCCC1` into the matching growth inhibition band.
Result :: high-valued
